protocol notes: qHTS assay to identify small molecule antagonists of the retinoid acid receptor (RAR) signaling pathway - cell viability counter screen (AID 1159551); also: nearly all actives have a fitted effect of over 35% in size
condition: C3RL4 cells viability, ATP luminescence (CellTiter-Glo), 6 h; series mostly up to 92.4 µM
Inconclusive results are not listed. Calls of active or inactive are those of the source. Calls follow the shape of the dose curve; as a rule, active = well fitted cell-killing curve with a large enough effect in the repeat runs; inconclusive = weak or mixed curves, or effect the other way; inactive = flat fitted curve, though single readings scatter.
Outcome codes: active, inactive

• Oc1ccccc1Br = inactive
• CC(C)OS(C)(=O)=O = inactive
• O=[N+]([O-])c1cc(C(F)(F)F)c(Cl)c([N+](=O)[O-])c1Cl = active
• CC(C)C(=O)Cl = inactive
• FC(Cl)(Cl)Cl = inactive
• CCCCCCCCCBr = inactive
• C[As+](C)(C)CC(=O)[O-] = inactive
• CC(C)[C@H](C(=O)O[C@H](C#N)c1cccc(Oc2ccccc2)c1)c1ccc(Cl)cc1 = inactive
• CC(C)CC(C)N (configuration not stated) = inactive
• Oc1ccc(C2(c3ccc(O)cc3)CCCCC2)cc1 = inactive
• C[C@@H]1O[C@@H](O[C@H]2C[C@@H](O)[C@]3(CO)[C@H]4[C@H](O)C[C@]5(C)[C@@H](C6=CC(=O)OC6)CC[C@]5(O)[C@@H]4CC[C@]3(O)C2)[C@H](O)[C@H](O)[C@H]1O = inactive
• O=[N+]([O-])c1ccc2ccc3cccc4ccc1c2c34 = inactive
• CC(C)CCCCCCCOP(=O)(Oc1ccccc1)Oc1ccccc1 = inactive
• ClC1=C(Cl)C2(Cl)C3C(Cl)C(Cl)CC3C1(Cl)C2(Cl)Cl (configuration not stated) = inactive
• Clc1ccc(-c2ccccc2)cc1 = inactive
• CC(=O)OC1(c2ccccc2)CCN(CCc2ccccc2)CC1 = inactive
• CCCN(CCC)CCc1c[nH]c2ccccc12 = inactive

----------
protocol notes: qHTS assay to identify small molecule agonists of the progesterone receptor (PR) signaling pathway - cell viability counter screen (AID 1346799); also: nearly all actives have a fitted effect of over 45% in size
condition: PR-UAS-bla HEK293T viability, CellTiter-Glo luminescence, 16 h; series mostly up to 92.4 µM
Inconclusive results are not listed. The source made the active and inactive calls. The call rests on the fitted dose curve.
Outcome codes: Y = active, N = inactive

- Cl/C=C\CCl: N
- COc1ccc(OC)c(CC(C)N)c1 (stereo not given): N
- CC(C)(c1ccc(O)c(-c2ccccc2)c1)c1ccc(O)c(-c2ccccc2)c1: Y
- ClCCN1CCOCC1: N
- NC(=O)c1ccc(N)nc1: Y
- CCC[CH2][Sn]([CH2]CCC)([CH2]CCC)[O]C(=O)c1ccccc1: Y
- CC(C)C(=O)Cl: N
- Clc1ccc(CO/N=C(\Cn2ccnc2)c2ccc(Cl)cc2Cl)c(Cl)c1: Y
- c1ccc(Nc2ccc3ccccc3c2)cc1: N
- c1ccc2cc3c(cc2c1)-c1cccc2cccc-3c12: N
- C[C@@H]1CC[C@@]2(OC1)O[C@H]1[C@@H](O)[C@H]3[C@@H]4CC[C@H]5C[C@@H](O[C@@H]6O[C@H](CO)[C@H](O[C@@H]7O[C@H](CO)[C@@H](O)[C@H](O[C@@H]8OC[C@@H](O)[C@H](O)[C@H]8O)[C@H]7O[C@@H]7O[C@H](CO)[C@@H](O)[C@H](O[C@@H]8O[C@H](CO)[C@@H](O)[C@H](O)[C@H]8O)[C@H]7O)[C@H](O)[C@H]6O)[C@H](O)C[C@]5(C)[C@H]4CC[C@]3(C)[C@H]1[C@@H]2C: Y
- O=[N+]([O-])c1cc(Cl)ccc1Cl: N
- C[As+](C)(C)CC(=O)[O-]: N
- Cc1cc(SCc2sc(-c3ccc(C(F)(F)F)c(F)c3)nc2C)ccc1OCC(=O)O: Y
- CC(C)CCCCCCCOP(=O)(Oc1ccccc1)Oc1ccccc1: N

----------
protocol notes: qHTS assay to identify small molecule agonists of the estrogen related receptor (ERR) signaling pathway from Tox21 library (AID 1224849); also: nearly all actives have a fitted effect of over 15% in size
condition: ERR reporter cell line, ONE-Glo luciferase, 18 h; at 92.4 µM (top of the series) unless noted
Activity calls are given as the source filed them. The call rests on the fitted dose curve.
Outcome codes: yes (1) (active), no (0) (inactive)

- S=C=Nc1cccc2ccccc12: no (0)
- COC(=O)N(C(=O)N1CO[C@@]2(C(=O)OC)Cc3cc(Cl)ccc3C2=N1)c1ccc(OC(F)(F)F)cc1: no (0)
- CC(=O)/C=C/c1ccc2c(c1)OCO2: no (0)
- ClC1=C(Cl)[C@]2(Cl)[C@@H]3[C@@H](Cl)[C@@H](Cl)C[C@@H]3[C@@]1(Cl)C2(Cl)Cl: no (0)
- CCOP(=S)(OCC)OC(Cl)C(Cl)(Cl)Cl (centres undefined): no (0)
- O=C(CBr)c1ccc(O)cc1: no (0)
- CC(Cc1ccc(C(C)(C)C)cc1)CN1C[C@@H](C)O[C@@H](C)C1 (some centres undefined): no (0)
- CC(C)N1C(=O)N(c2ccccc2)CSC1=NC(C)(C)C: no (0)
- CC1(c2ccc(Oc3ccccc3)cc2)OC(=O)N(Nc2ccccc2)C1=O (centres undefined): no (0)
- C[C@]12CC[C@H](O)C[C@H]1CC[C@@H]1[C@@H]2C[C@@H](O)[C@]2(C)[C@@H](C3=CC(=O)OC3)CC[C@]12O: yes (1)
- Cc1cc(C(F)(C(F)(F)F)C(F)(F)F)ccc1NC(=O)c1cccc(I)c1C(=O)NC(C)(C)CS(C)(=O)=O: no (0)
- CCS(=O)(=O)c1cccnc1S(=O)(=O)NC(=O)Nc1nc(OC)cc(OC)n1: no (0)
- CCc1nn(C)c(C(=O)NCc2ccc(C(C)(C)C)cc2)c1Cl: no (0)
- Brc1c(Br)c(Br)c(Oc2c(Br)c(Br)c(Br)c(Br)c2Br)c(Br)c1Br: no (0)
- N#CC(Cl)Cl: no (0)
- S=C(SSC(=S)N1CCCCC1)N1CCCCC1: no (0)
- N#Cc1c(-c2ccc(Cl)cc2)[nH]c(C(F)(F)F)c1Br: no (0)
- C1CCC2CCCCC2C1 (centres undefined): no (0)
- CCCCCCCCCCCCCCCCCCn1cc[n+](C)c1: no (0)

----------
tested on: Acetylcholinesterase (Homo sapiens)
protocol notes: Acetylcholinesterase (AChE) small molecule antagonists: fluorescence cell-based qHTS assay (AID 1347398); also: nearly all actives have a fitted effect of over 50% in size
condition: SH-SY5Y cells; AChE activity; series mostly up to 115 µM
Inconclusive results are not listed. Activity calls are given as the source filed them. Calls follow the shape of the full dose curve.
parameter measured: outcome

- O=C(NC(=O)c1c(F)cccc1F)Nc1cc(Cl)c(OC(F)(F)C(F)F)c(Cl)c1: inactive
- CCCCCCCCCCBr: inactive
- O=C(CCl)Nc1ccccc1: inactive
- CC(=O)C(Cl)(Cl)Cl: inactive
- ClCCN1CCOCC1: inactive
- c1ccc2cc3c(cc2c1)-c1cccc2cccc-3c12: inactive
- NNC(=O)c1ccccc1: inactive
- CCCCOP(=O)(CCCC)OCCCC: inactive
- Cc1cc(SCc2sc(-c3ccc(C(F)(F)F)c(F)c3)nc2C)ccc1OCC(=O)O: inactive
- Cc1cc(C)c(C2=C(OC(=O)CC(C)(C)C)C3(CCCC3)OC2=O)c(C)c1: inactive
- CCCN(CC)CC1COC2(CCC(C(C)(C)C)CC2)O1 (stereo not drawn): inactive
- Cc1cc(C(C)(C)c2cc(C)c(O)c(C)c2)cc(C)c1O: inactive
- Clc1ccc(C(c2ccccc2Cl)C(Cl)(Cl)Cl)cc1 (stereo not drawn): inactive
- CC(c1ccc(O)cc1)c1ccc(O)cc1: inactive
- Cn1[nH]nnc1=S: inactive
- COC(=O)N(C(=O)N1COC2(C(=O)OC)Cc3cc(Cl)ccc3C2=N1)c1ccc(OC(F)(F)F)cc1 (stereo not drawn): inactive
- CC(=O)O[C@H]1CC[C@@]2(C)C(=CC[C@@H]3[C@@H]2CC[C@]2(C)C(=O)CC[C@@H]32)C1: inactive
- FC(Cl)(Cl)Cl: inactive

----------
protocol notes: qHTS RealTime-Glo MT Cell Viability Assay in HepG2 cells - 32 hour (AID 1224877); also: nearly all actives have a fitted effect of over 55% in size
condition: RealTime-Glo luminescence; series mostly up to 76.8 µM
From the text: U.S. Tox21 Program National Center for Advancing Translational Sciences [NCATS] NIH Chemical Genomics Center [NCGC] U.S. Environmental Protection Agency [EPA] National Institutes of Environmental Health Sciences [NIEHS] National Toxicology Program [NTP] U.S. Food and Drug Administration [FDA] Tox21 Assay Overview: Measure of cell viability is critical in the cell-base assay. Analysis of cell viability is necessary for the characterization of cell responses to cytotoxic drugs and environmental stress. […]
Inconclusive results are not listed. Calls of active or inactive are those of the source. Calls follow the shape of the dose curve; as a rule, active = well fitted cell-killing curve with a large enough effect in the repeat runs; inconclusive = weak or mixed curves; inactive = flat fitted curve, though single readings scatter.
Outcome codes: active, inactive

• C[As+](C)(C)CC(=O)[O-] = inactive
• COc1ccc([N+](=O)[O-])cc1O = inactive
• CC1CCC(C(C)C)C(OC(=O)c2ccccc2N)C1 (stereo not given) = inactive
• O=CC(Br)(Br)Br = active
• O=C(O)COc1nc(Cl)c(Cl)cc1Cl = inactive
• CC(=O)Nc1ccc2c(c1)Cc1ccccc1-2 = inactive
• COc1cc(N)c(Cl)cc1C(=O)NC1CN2CCC1CC2 (stereo not given) = inactive
• FC(F)(F)c1cccc(C2=CCN(CCc3ccc4ccccc4c3)CC2)c1 = inactive
• N#CNC#N = inactive
• c1ccc2cc3c(cc2c1)-c1cccc2cccc-3c12 = inactive
